- experimental_system: SREBP-2 (Homo sapiens (Human), UniProt Q12772)
- experimental_protocol: In vitro assay SREBP-2: PathHunter U2OS SREBP-2 Nuclear Translocation Cell Line, U18666A-stimulated
- Type: cell-based
- experimental_setup: PathHunter U2OS SREBP-2 nuclear translocation cells, U18666A 10 μM, overnight (16 hours)

>  <compound>
Cc1nccc(CC[C@@H](C)[C@H]2CC[C@H]3[C@@H]4CC=C5C[C@@H](O)CC[C@]5(C)[C@H]4CC[C@]23C)n1 [Example 190]

>  <IC50>
250 to 1000 nM

$$$$
>  <compound>
CC(O)C1CCN(C(=O)CC[C@@H](C)[C@H]2CC[C@H]3[C@@H]4CC=C5C[C@@H](O)CC[C@]5(C)[C@H]4CC[C@]23C)CC1 (stereo partly drawn) [Example 377]

>  <IC50>
< 250 nM

$$$$
>  <compound>
C[C@H](CCC(=O)N1CCNC(=O)C1)[C@H]1CC[C@H]2[C@@H]3CC=C4C[C@@H](O)CC[C@]4(C)[C@H]3CC[C@]12C [Example 362]

>  <IC50>
250 to 1000 nM

$$$$

* * *

Each record here notes measured IC50.
- experimental_system: SREBP-2 (Homo sapiens (Human), UniProt Q12772)
- experimental_protocol: In vitro assay SREBP-2: PathHunter U2OS SREBP-2 Nuclear Translocation Cell Line, U18666A-stimulated
- Assay type: cell-based
- experimental_setup: PathHunter U2OS SREBP-2 nuclear translocation cells, U18666A 10 μM, overnight (16 hours)
property_name: IC50

>  <smiles_representation>
C[C@H](CCC(=O)N1OCCC[C@@H]1C)[C@H]1CC[C@H]2[C@@H]3CC=C4C[C@@H](O)CC[C@]4(C)[C@H]3CC[C@]12C

>  <property_name>
IC50

>  <result>
< 250 nM

$$$$
>  <smiles_representation>
C=CCN1C[C@@H]2CCN(C(=O)CC[C@@H](C)[C@H]3CC[C@H]4[C@@H]5CC=C6C[C@@H](O)CC[C@]6(C)[C@H]5CC[C@]34C)[C@@H]2C1

>  <property_name>
IC50

>  <result>
250 to 1000 nM

$$$$
>  <smiles_representation>
CCCN(CCC)C(=O)C(=O)O[C@@H](C)[C@H]1CC[C@H]2[C@@H]3CC=C4C[C@@H](O)CC[C@]4(C)[C@H]3CC[C@]12C

>  <property_name>
IC50

>  <result>
< 250 nM

$$$$
>  <smiles_representation>
COC(=O)N1CCN(C(=O)NC[C@@H](C)[C@H]2CC[C@H]3[C@@H]4CC=C5C[C@@H](O)CC[C@]5(C)[C@H]4CC[C@]23C)CC1

>  <property_name>
IC50

>  <result>
< 250 nM

$$$$
>  <smiles_representation>
C[C@H](CCC(=O)N1C[C@@H]2C[C@]2(c2ccccc2)C1)[C@H]1CC[C@H]2[C@@H]3CC=C4C[C@@H](O)CC[C@]4(C)[C@H]3CC[C@]12C

>  <property_name>
IC50

>  <result>
< 250 nM

$$$$

* * *

- experimental_system: LXRβ (Homo sapiens (Human), UniProt P55055)
- Sequence (P55055 whole entry): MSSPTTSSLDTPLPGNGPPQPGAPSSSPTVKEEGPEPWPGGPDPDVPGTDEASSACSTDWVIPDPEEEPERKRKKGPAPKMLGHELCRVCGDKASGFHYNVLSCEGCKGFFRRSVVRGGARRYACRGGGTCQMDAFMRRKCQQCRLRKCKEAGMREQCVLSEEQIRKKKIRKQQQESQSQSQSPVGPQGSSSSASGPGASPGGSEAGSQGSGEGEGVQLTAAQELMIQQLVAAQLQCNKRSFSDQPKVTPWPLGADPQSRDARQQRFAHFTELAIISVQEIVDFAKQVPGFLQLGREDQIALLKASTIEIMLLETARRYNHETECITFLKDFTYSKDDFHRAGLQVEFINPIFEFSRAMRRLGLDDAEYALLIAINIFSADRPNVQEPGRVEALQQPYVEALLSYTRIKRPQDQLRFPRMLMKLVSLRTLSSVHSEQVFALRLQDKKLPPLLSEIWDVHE
- experimental_protocol: LXRβ PPI (category A-D, Tables 1 and 3)
- Format: biochemical
- experimental_setup: Table 3, trans-AB examples

>  <smiles_representation>
C=C[C@](O)(CC[C@@H](C)[C@H]1CC[C@H]2[C@@H]3CC=C4C[C@@H](O)CC[C@]4(C)[C@H]3CC[C@]12C)C(F)(F)F

>  <LXRβ PPI>
D (>10000 nM)

$$$$
>  <smiles_representation>
CCON(C)C(=O)CC[C@@H](C)[C@H]1CC[C@H]2[C@@H]3CC=C4C[C@@H](O)CC[C@]4(C)[C@H]3CC[C@]12C

>  <LXRβ PPI>
B (250 nM-1000 nM)

$$$$
>  <smiles_representation>
C[C@H](CCC(=O)N1CC[C@@H](CO)O1)[C@H]1CC[C@H]2[C@@H]3CC=C4C[C@@H](O)CC[C@]4(C)[C@H]3CC[C@]12C

>  <LXRβ PPI>
D (>10000 nM)

$$$$
>  <smiles_representation>
C[C@H](CC[C@@](O)(C1CCC1)C(F)(F)F)[C@H]1CC[C@H]2[C@@H]3CC=C4C[C@@H](O)CC[C@]4(C)[C@H]3CC[C@]12C

>  <LXRβ PPI>
B (250 nM-1000 nM)

$$$$
>  <smiles_representation>
C=C[C@@](O)(CC[C@@H](C)[C@H]1CC[C@H]2[C@@H]3CC=C4C[C@@H](O)CC[C@]4(C)[C@H]3CC[C@]12C)C(F)(F)F

>  <LXRβ PPI>
D (>10000 nM)

$$$$
>  <smiles_representation>
CCCCON(C)C(=O)CC[C@@H](C)[C@H]1CC[C@H]2[C@@H]3CC=C4C[C@@H](O)CC[C@]4(C)[C@H]3CC[C@]12C

>  <LXRβ PPI>
B (250 nM-1000 nM)

$$$$
>  <smiles_representation>
CC[C@](O)(CC[C@@H](C)[C@H]1CC[C@H]2[C@@H]3CC=C4C[C@@H](O)CC[C@]4(C)[C@H]3CC[C@]12C)C(F)(F)F

>  <LXRβ PPI>
B (250 nM-1000 nM)

$$$$
